target: Low molecular weight phosphotyrosine protein phosphatase (Homo sapiens) (UniProt P24666); test: Inhibition of LMW-PTP isoform A (unknown origin)
Sequence (P24666 whole entry, canonical isoform): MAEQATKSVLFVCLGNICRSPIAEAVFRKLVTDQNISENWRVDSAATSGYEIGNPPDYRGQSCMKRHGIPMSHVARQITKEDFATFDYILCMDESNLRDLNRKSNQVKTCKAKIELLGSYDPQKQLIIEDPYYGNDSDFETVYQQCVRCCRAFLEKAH
# reported log10 Kis; entries follow
measurementLabel: log10 Kis (log10 of the value in µM)

- structureSmiles: "O=P(O)(O)CCc1cccnc1"
  log10 Kis: 2.01
- structureSmiles: "Cc1ncc(CCP(=O)(O)O)c(CO)c1O"
  log10 Kis: 1.02
- structureSmiles: "Cc1ccc(/C=C/P(=O)(O)O)cc1"
  log10 Kis: 1.82
- structureSmiles: "Cc1ncc(/C=C/P(=O)(O)O)c(C=O)c1O"
  log10 Kis: 0.71
- structureSmiles: "O=P(O)(O)C(F)(F)Cc1ccccc1"
  log10 Kis: 2.56
- structureSmiles: "Cc1ccc(CCP(=O)(O)O)cn1"
  log10 Kis: 0.26
- structureSmiles: "Cc1ccc(/C=C/P(=O)(O)O)cn1"
  log10 Kis: 2.33
- structureSmiles: "O=P(O)(O)/C=C/c1cccc(O)c1"
  log10 Kis: 1.20
- structureSmiles: "Cc1ncc(CCP(=O)(O)O)c(C=O)c1O"
  log10 Kis: 1.87
- structureSmiles: "O=P(O)(O)/C=C/c1cccnc1"
  log10 Kis: 2.39
- structureSmiles: "O=P(O)(O)CCc1cccc(O)c1"
  log10 Kis: 1.11
- structureSmiles: "Cc1ccc(CCP(=O)(O)O)cc1"
  log10 Kis: 2.11
- structureSmiles: "Cc1ccc(CCP(=O)(O)O)cc1O"
  log10 Kis: 0.56
- structureSmiles: "O=P(O)(O)CCc1ccccc1"
  log10 Kis: 2.74
- structureSmiles: "O=P(O)(O)/C=C/c1ccccc1"
  log10 Kis: 2.68
- structureSmiles: "Cc1ncc(/C=C/P(=O)(O)O)c(CO)c1O"
  log10 Kis: 1.21
- structureSmiles: "Cc1ccc(/C=C/P(=O)(O)O)cc1O"
  log10 Kis: 1.70

###

biological target: Low molecular weight phosphotyrosine protein phosphatase (Homo sapiens) (UniProt P24666); assay: Inhibition of LMW-PTP isoform B (unknown origin)
For each record, check the reported Kis: if it is below 600 µM write yes, else write no.

- structureSmiles: "O=P(O)(O)CCc1cccnc1"
  discreteLabel: "no"
- structureSmiles: "O=P(O)(O)/C=C/c1cccnc1"
  discreteLabel: "no"
- structureSmiles: "Cc1ncc(/C=C/P(=O)(O)O)c(CO)c1O"
  discreteLabel: "no"
- structureSmiles: "Cc1ccc(/C=C/P(=O)(O)O)cc1O"
  discreteLabel: "yes"
- structureSmiles: "O=P(O)(O)CCc1cccc(O)c1"
  discreteLabel: "yes"
- structureSmiles: "Cc1ccc(CCP(=O)(O)O)cn1"
  discreteLabel: "yes"
- structureSmiles: "Cc1ccc(CCP(=O)(O)O)cc1O"
  discreteLabel: "yes"
- structureSmiles: "O=P(O)(O)/C=C/c1ccccc1"
  discreteLabel: "no"
- structureSmiles: "Cc1ccc(/C=C/P(=O)(O)O)cc1"
  discreteLabel: "yes"
- structureSmiles: "O=P(O)(O)CCc1ccccc1"
  discreteLabel: "no"
- structureSmiles: "O=P(O)(O)C(F)(F)Cc1ccccc1"
  discreteLabel: "no"
- structureSmiles: "Cc1ncc(/C=C/P(=O)(O)O)c(C=O)c1O"
  discreteLabel: "yes"
- structureSmiles: "Cc1ccc(CCP(=O)(O)O)cc1"
  discreteLabel: "yes"
- structureSmiles: "Cc1ncc(CCP(=O)(O)O)c(C=O)c1O"
  discreteLabel: "yes"
- structureSmiles: "Cc1ncc(CCP(=O)(O)O)c(CO)c1O"
  discreteLabel: "yes"
- structureSmiles: "Cc1ccc(/C=C/P(=O)(O)O)cn1"
  discreteLabel: "no"
- structureSmiles: "O=P(O)(O)/C=C/c1cccc(O)c1"
  discreteLabel: "yes"

Source listed as ChEMBL document CHEMBL4622948.
